# assayed target: HA of ca A/mallard/Alberta/89/85 (H6N2) (influenza A virus)
# test method notes: cell-based or functional assay
Exercise: state measured Neutralization IC50, H6-AB85 for each of the binders provided.
I only need the number, in µg/mL, no unit after it.

Q. # get_value(readout='Neutralization IC50, H6-AB85', item= Antibody 12 (antibody, V domains shown) VH: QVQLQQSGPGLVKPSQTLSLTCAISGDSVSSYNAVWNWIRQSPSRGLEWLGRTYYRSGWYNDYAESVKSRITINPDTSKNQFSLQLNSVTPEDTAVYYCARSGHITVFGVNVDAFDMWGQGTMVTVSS VL: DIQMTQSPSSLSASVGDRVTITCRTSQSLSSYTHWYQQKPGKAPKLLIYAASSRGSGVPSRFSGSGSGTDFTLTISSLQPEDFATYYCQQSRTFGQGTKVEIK )
A. 0.32

Q. Would you mind telling me what Neutralization IC50, H6-AB85 value was observed for Antibody 15 (antibody, V domains shown) VH: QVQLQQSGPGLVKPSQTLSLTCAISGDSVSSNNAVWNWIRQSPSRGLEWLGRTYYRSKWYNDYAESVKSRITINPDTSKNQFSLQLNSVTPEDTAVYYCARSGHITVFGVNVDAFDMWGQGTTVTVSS VL: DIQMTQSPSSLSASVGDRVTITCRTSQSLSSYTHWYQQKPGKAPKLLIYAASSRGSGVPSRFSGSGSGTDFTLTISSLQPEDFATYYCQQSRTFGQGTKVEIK ?
A. 0.19

Q. What value of measured Neutralization IC50, H6-AB85 is listed for Antibody 11 (antibody, V domains shown) VH: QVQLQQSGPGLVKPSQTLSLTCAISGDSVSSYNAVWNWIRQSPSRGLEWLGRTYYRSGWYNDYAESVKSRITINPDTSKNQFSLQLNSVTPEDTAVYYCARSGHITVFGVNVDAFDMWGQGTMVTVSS VL: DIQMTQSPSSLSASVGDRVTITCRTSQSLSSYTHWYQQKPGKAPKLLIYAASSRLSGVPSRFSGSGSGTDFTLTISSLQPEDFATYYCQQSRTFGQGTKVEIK ?
A. 0.24

Q. Value lookup for Neutralization IC50, H6-AB85; key = Antibody 13 (antibody, V domains shown) VH: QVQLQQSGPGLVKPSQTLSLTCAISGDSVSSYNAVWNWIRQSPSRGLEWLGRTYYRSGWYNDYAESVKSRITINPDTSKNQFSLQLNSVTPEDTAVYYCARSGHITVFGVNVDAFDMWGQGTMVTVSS VL: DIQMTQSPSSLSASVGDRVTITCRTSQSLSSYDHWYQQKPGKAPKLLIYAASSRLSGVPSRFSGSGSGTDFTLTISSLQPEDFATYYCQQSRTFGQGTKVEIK
A. 0.29

Q. Entry Antibody 14 (antibody, V domains shown) VH: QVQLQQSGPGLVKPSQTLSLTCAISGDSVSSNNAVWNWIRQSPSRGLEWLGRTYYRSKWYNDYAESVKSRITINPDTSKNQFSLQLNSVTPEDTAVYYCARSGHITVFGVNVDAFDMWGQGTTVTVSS VL: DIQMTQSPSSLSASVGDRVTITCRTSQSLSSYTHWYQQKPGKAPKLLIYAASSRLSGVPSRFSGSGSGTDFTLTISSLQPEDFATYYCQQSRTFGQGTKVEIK has what Neutralization IC50, H6-AB85?
A. 0.26

Q. Please report the recorded Neutralization IC50, H6-AB85 for Antibody 3 (antibody, V domains shown) VH: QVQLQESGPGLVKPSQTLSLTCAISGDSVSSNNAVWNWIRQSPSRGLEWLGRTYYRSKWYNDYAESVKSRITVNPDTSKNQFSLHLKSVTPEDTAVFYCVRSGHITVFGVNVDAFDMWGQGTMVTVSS VL: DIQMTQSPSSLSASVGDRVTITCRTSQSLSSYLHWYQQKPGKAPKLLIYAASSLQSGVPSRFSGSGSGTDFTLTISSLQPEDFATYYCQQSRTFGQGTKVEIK .
A. 0.69
